Molecular target: hCA IX (Homo sapiens)
Construct: made in house
Test: stopped-flow CO2 hydrase assay, hCA IX
Assay type: biochemical
Settings: recombinant hCA IX; mean from 3 different assays, errors ±5–10%
Can you tell me Ki for the items I'm about to list?
One number for each entry, in nM.

INSERT INTO results (molecule, target_or_system, readout_units, observed) VALUES
  ('O=S(=O)(NCc1ccccc1C(F)(F)F)c1ccccc1CO', 'hCA IX (Homo sapiens)', 'nM', 200),
  ('O=S(=O)(NCc1c(F)cccc1F)c1ccccc1CO', 'hCA IX (Homo sapiens)', 'nM', 296),
  ('O=S(=O)(NCc1cccc(C(F)(F)F)c1)c1ccccc1CO', 'hCA IX (Homo sapiens)', 'nM', 238),
  ('O=S(=O)(NCc1ccc(Cl)cc1)c1ccccc1CO', 'hCA IX (Homo sapiens)', 'nM', 154),
  ('COc1cccc(C(O)CNS(=O)(=O)c2ccccc2CO)c1 (centres unmarked)', 'hCA IX (Homo sapiens)', 'nM', 31);

Provide Ki for all items below, preserving their order.
1. O=S(=O)(NCc1ccc(C(F)(F)F)cc1)c1ccccc1CO
2. Cc1ccc(CNS(=O)(=O)c2ccccc2CO)cc1
3. Cc1ccccc1CNS(=O)(=O)c1ccccc1CO
4. O=S(=O)(NCc1cccc(F)c1)c1ccccc1CO
5. O=S(=O)(NCc1ccc(F)cc1)c1ccccc1CO
6. O=S(=O)(NCC(O)c1ccccc1)c1ccccc1CO (centres unmarked)

Result ::
1. 253
2. 120
3. 218
4. 268
5. 26
6. 224

###

Target: hCA IX (Homo sapiens, UniProt Q16790)
Construct: made in house
Assay: stopped-flow CO2 hydrase assay, hCA IX
Format: biochemical
Settings: recombinant hCA IX; mean from 3 different assays, errors ±5–10%
endpoint.name: Ki (nM)
Answers are plain numbers, in nM.

The cases that follow already have their Ki on record.
INSERT INTO results (compound, endpoint_name, observed) VALUES
  ('O=S(=O)(NCc1cccc2ccccc12)c1ccccc1CO [Compound 19]', 'Ki', 294),
  ('O=S(=O)(NCc1ccc(Br)cc1)c1ccccc1CO [Compound 16]', 'Ki', 145),
  ('N#Cc1ccc(CNS(=O)(=O)c2ccccc2CO)cc1 [Compound 12]', 'Ki', 126),
  ('O=S(=O)(NCc1ccc(Cl)c(Cl)c1)c1ccccc1CO [Compound 18]', 'Ki', 298),
  ('O=S(=O)(NCc1ccccc1Br)c1ccccc1CO [Compound 4]', 'Ki', 113);

Provide Ki for all items below, preserving their order.
1. O=[N+]([O-])c1ccc(CNS(=O)(=O)c2ccccc2CO)cc1 [Compound 13]
2. Cc1cccc(CNS(=O)(=O)c2ccccc2CO)c1 [Compound 5]
3. O=S(=O)(NCc1cccc(Br)c1)c1ccccc1CO [Compound 9]
4. O=[N+]([O-])c1cccc(CNS(=O)(=O)c2ccccc2CO)c1 [Compound 7]
5. O=[N+]([O-])c1ccccc1CNS(=O)(=O)c1ccccc1CO [Compound 3]

Result ::
20
223
267
176
104

###

Target: hCA XII (Homo sapiens, UniProt O43570)
Construct: made in house
Sequence (O43570 25-354): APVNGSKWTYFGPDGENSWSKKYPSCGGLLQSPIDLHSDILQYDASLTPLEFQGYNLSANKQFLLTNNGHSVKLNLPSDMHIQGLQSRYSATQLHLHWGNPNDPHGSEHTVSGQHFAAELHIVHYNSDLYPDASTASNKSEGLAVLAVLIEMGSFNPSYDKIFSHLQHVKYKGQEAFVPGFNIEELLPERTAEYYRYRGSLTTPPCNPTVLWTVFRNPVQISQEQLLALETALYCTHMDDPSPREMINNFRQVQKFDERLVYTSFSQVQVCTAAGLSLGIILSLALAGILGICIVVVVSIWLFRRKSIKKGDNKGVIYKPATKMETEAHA
Assay: stopped-flow CO2 hydrase assay, hCA XII
Format: biochemical
Settings: recombinant hCA XII; mean from 3 different assays, errors ±5–10%
Mark 1 only for Ki values smaller than 50 nM; exact matches and larger values are 0.

Answered cases to consult:
INSERT INTO assay_data (molecule, assigned_class) VALUES
  ('O=S(=O)(NCc1cccc(Br)c1)c1ccccc1CO', 0),
  ('O=S(=O)(NCc1c(F)cccc1F)c1ccccc1CO', 1),
  ('O=S(=O)(NCc1cccc2ccccc12)c1ccccc1CO', 0),
  ('O=S(=O)(NCc1ccc(F)cc1)c1ccccc1CO', 0),
  ('Cc1ccc(CNS(=O)(=O)c2ccccc2CO)cc1', 1),
  ('Cc1ccccc1CNS(=O)(=O)c1ccccc1CO', 1),
  ('O=S(=O)(NCc1cccc(C(F)(F)F)c1)c1ccccc1CO', 1),
  ('Cc1cccc(CNS(=O)(=O)c2ccccc2CO)c1', 1);

Query :: Here's an entry: N#Cc1ccc(CNS(=O)(=O)c2ccccc2CO)cc1 . Is its Ki below 50 nM?
Result :: 0

Query :: Here's an entry: O=S(=O)(NCc1ccc(Br)cc1)c1ccccc1CO . Is its Ki below 50 nM?
Result :: 0

Query :: Here's an entry: O=S(=O)(NCc1ccc(Cl)c(Cl)c1)c1ccccc1CO . Is its Ki below 50 nM?
Result :: 1

Query :: Here's an entry: O=S(=O)(NCc1ccccc1Br)c1ccccc1CO . Is its Ki below 50 nM?
Result :: 0

Query :: Here's an entry: O=S(=O)(NCc1ccc(Cl)cc1)c1ccccc1CO . Is its Ki below 50 nM?
Result :: 1

Query :: Here's an entry: O=[N+]([O-])c1cccc(CNS(=O)(=O)c2ccccc2CO)c1 . Is its Ki below 50 nM?
Result :: 0

Query :: Here's an entry: COc1cccc(C(O)CNS(=O)(=O)c2ccccc2CO)c1 (stereo not drawn) . Is its Ki below 50 nM?
Result :: 0

Query :: Here's an entry: O=[N+]([O-])c1ccc(CNS(=O)(=O)c2ccccc2CO)cc1 . Is its Ki below 50 nM?
Result :: 0

Query :: Here's an entry: O=S(=O)(NCc1ccccc1C(F)(F)F)c1ccccc1CO . Is its Ki below 50 nM?
Result :: 0

Query :: Here's an entry: O=S(=O)(NCc1cccc(F)c1)c1ccccc1CO . Is its Ki below 50 nM?
Result :: 0
